tested on: barnyardgrass (Echinochloa crus-galli); experiment: Test E greenhouse herbicide test, pre- and postemergence; format: in vivo; conditions: Preemergence, 250 g ai/ha; visual, scale 0 no effect to 100 complete control
Mark true for Plant response rating, Barnyardgrass under 60, false if at or over.

compound: Cn1nc(Br)c(O)c(-c2cccc3ccccc23)c1=O [Compound 20]
class-name: true

compound: Cc1ccc2ccccc2c1-c1c(O)c(I)nn(C)c1=O [Compound 29]
class-name: false

compound: Cc1ccc2sc(Br)c(-c3c(O)c(C)nn(C)c3=O)c2c1 [Compound 79]
class-name: true

compound: CCc1sc2ccc(C)cc2c1-c1c(O)c(C)nn(C)c1=O [Compound 47]
class-name: false

compound: Cc1nn(C)c(=O)c(-c2ccc(Br)c3ccccc23)c1O [Compound 75]
class-name: false

Value source: patent US10597388B2
